Experiment: chemical genetic growth profiling, strain panel (AID 1159580);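 note: tested at 20 µM; growth read once vehicle control cultures reached saturation at 30 °C; 1 = growth at the plate median or of vehicle wells; lower values mean less growth of the strain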
Conditions: S. cerevisiae deletion strains, growth OD, locus YOR106W, strain vam3, hits give low values
Hit rate of the full screen: of about 5,500 compounds, about 2,000 (36%) were called active. Inconclusive results (about 18%) are left out. The list shows a part of the results.
I'd be grateful if you could share measured normalized growth for these entries.
API note: the answer field is a bare number with no unit suffix.

Consider the compound shown here: Cc1ccc(Cl)c(Nc2ccccc2C(=O)O)c1Cl What is its recorded normalized growth?
0.85

Consider the compound shown here: COC(=O)C(C)c1ccc(C(=O)c2cccs2)cc1 (configuration not stated) What is its recorded normalized growth?
0.995

Consider the compound shown here: C=CC(N)CCC(=O)O (configuration not stated) What is its recorded normalized growth?
0.961

Consider the compound shown here: Nc1ccc(N=Nc2ccccc2)c(N)n1 What is its recorded normalized growth?
0.563

Consider the compound shown here: Cc1cccc(Nc2ccccc2C(=O)O)c1C What is its recorded normalized growth?
0.94

Consider the compound shown here: O=c1cc[nH]c(=S)[nH]1 What is its recorded normalized growth?
1.05

Consider the compound shown here: CC(C(=O)O)c1ccc(C(=O)c2cccs2)cc1 (configuration not stated) What is its recorded normalized growth?
0.995

* * *

Assay: chemical genetic growth profiling, strain panel (AID 1159580);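 note: tested at 20 µM; growth read once vehicle control cultures reached saturation at 30 °C; 1 = growth at the plate median or of vehicle wells; lower values mean less growth of the strain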
Settings: S. cerevisiae deletion strains, growth OD, locus YML120C, strain ndi1
The whole screen tested about 5,500 compounds, of which about 2,000 (36%) were called active. Another 18% or so got no clear call; they are omitted. No stated cut-off is given here; in the data, active means normalized growth mostly below about 0.91 (no sharp cut-off); inconclusive means no clear call, values can overlap the other calls; inactive means mostly above about 0.92. The list shows a part of the results.
// allowed return values: 1 (active), 0 (inactive)

Which outcome was entered for the molecule CCCCN1CCCCC1C(=O)Nc1c(C)cccc1C (centres undefined) in this test?
0

Which outcome was entered for the molecule Cc1c(S(=O)(=O)O)oc2c1C(=O)C(=O)c1c-2ccc2c1CCCC2(C)C in this test?
1

Which outcome was entered for the molecule O=C1C=C2C=C[C@@H]3C[C@@]2(O1)[C@H]1CCCCN31 in this test?
0

Which outcome was entered for the molecule OCc1ccccc1O in this test?
0

Which outcome was entered for the molecule O=S1OCC2C(CO1)C1(Cl)C(Cl)=C(Cl)C2(Cl)C1(Cl)Cl (centres undefined) in this test?
0

Which outcome was entered for the molecule CCNC(=O)CC[C@H](N)C(=O)O in this test?
0

Which outcome was entered for the molecule N[C@@H](CC(=O)N1CCn2c(nnc2C(F)(F)F)C1)Cc1cc(F)c(F)cc1F in this test?
0

Which outcome was entered for the molecule O=C(C1CCCCC1)N1CC(=O)N2CCc3ccccc3C2C1 (centres undefined) in this test?
0

Which outcome was entered for the molecule Cc1cc(NC(=O)C2=C(O)c3ccccc3S(=O)(=O)N2C)no1 in this test?
0

Which outcome was entered for the molecule CC1=CC2C(CC1=O)C(C)=CCC2C(C)C (centres undefined) in this test?
0

Which outcome was entered for the molecule O=C(O)CN1C(=O)c2cccc3cccc(c23)C1=O in this test?
0

Which outcome was entered for the molecule CO/N=C(\C(=O)NC1C(=O)N2C(C(=O)OC(C)OC(C)=O)=C(COC(N)=O)CSC12)c1ccco1 (centres undefined) in this test?
0

Which outcome was entered for the molecule CCCCCCCCCCCCCCCC(=O)OC1C(SC)OC(C(NC(=O)C2CC(CCC)CN2C)C(C)Cl)C(O)C1O (centres undefined) in this test?
0

Which outcome was entered for the molecule C=CCCCCCCCCCCCC(O)CC(O)COC(C)=O (centres undefined) (tested in a mixture with another compound) in this test?
1

Which outcome was entered for the molecule NC(N)=NS(=O)(=O)c1ccc(N)cc1 in this test?
0

Which outcome was entered for the molecule C=CC(N)CCC(=O)O (centres undefined) in this test?
0

Which outcome was entered for the molecule CCOC(=O)c1ccc(O)cc1 in this test?
0

Which outcome was entered for the molecule O=C1OC2(c3ccc(O)cc3Oc3cc(O)ccc32)c2ccccc21 in this test?
0

Which outcome was entered for the molecule CC(=O)N[C@@H](CS)C(=O)O in this test?
0

Which outcome was entered for the molecule CCOC(=O)Nc1nc2ccccc2[nH]1 in this test?
0

Which outcome was entered for the molecule CO/N=C(\C(=O)N[C@@H]1C(=O)N2C(C(=O)O)=C(COC(C)=O)CS[C@H]12)c1csc(N)n1 in this test?
0

Which outcome was entered for the molecule O=C1OC(c2ccc(O)cc2)(c2ccc(O)cc2)c2ccccc21 in this test?
0

Which outcome was entered for the molecule O=c1cc[nH]c(=S)[nH]1 in this test?
0

Which outcome was entered for the molecule Nc1ccn(C2O[C@H](CO)[C@@H](O)[C@@H]2O)c(=O)n1 (some centres undefined) in this test?
0
